Target Desc: T1, monkey C5-mmh (monkey, UniProt P01031 19-1676 (human entry), limits assumed)
T1 construct: recombinant, with C-terminal myc-myc-hexahistidine tag
T1 chain: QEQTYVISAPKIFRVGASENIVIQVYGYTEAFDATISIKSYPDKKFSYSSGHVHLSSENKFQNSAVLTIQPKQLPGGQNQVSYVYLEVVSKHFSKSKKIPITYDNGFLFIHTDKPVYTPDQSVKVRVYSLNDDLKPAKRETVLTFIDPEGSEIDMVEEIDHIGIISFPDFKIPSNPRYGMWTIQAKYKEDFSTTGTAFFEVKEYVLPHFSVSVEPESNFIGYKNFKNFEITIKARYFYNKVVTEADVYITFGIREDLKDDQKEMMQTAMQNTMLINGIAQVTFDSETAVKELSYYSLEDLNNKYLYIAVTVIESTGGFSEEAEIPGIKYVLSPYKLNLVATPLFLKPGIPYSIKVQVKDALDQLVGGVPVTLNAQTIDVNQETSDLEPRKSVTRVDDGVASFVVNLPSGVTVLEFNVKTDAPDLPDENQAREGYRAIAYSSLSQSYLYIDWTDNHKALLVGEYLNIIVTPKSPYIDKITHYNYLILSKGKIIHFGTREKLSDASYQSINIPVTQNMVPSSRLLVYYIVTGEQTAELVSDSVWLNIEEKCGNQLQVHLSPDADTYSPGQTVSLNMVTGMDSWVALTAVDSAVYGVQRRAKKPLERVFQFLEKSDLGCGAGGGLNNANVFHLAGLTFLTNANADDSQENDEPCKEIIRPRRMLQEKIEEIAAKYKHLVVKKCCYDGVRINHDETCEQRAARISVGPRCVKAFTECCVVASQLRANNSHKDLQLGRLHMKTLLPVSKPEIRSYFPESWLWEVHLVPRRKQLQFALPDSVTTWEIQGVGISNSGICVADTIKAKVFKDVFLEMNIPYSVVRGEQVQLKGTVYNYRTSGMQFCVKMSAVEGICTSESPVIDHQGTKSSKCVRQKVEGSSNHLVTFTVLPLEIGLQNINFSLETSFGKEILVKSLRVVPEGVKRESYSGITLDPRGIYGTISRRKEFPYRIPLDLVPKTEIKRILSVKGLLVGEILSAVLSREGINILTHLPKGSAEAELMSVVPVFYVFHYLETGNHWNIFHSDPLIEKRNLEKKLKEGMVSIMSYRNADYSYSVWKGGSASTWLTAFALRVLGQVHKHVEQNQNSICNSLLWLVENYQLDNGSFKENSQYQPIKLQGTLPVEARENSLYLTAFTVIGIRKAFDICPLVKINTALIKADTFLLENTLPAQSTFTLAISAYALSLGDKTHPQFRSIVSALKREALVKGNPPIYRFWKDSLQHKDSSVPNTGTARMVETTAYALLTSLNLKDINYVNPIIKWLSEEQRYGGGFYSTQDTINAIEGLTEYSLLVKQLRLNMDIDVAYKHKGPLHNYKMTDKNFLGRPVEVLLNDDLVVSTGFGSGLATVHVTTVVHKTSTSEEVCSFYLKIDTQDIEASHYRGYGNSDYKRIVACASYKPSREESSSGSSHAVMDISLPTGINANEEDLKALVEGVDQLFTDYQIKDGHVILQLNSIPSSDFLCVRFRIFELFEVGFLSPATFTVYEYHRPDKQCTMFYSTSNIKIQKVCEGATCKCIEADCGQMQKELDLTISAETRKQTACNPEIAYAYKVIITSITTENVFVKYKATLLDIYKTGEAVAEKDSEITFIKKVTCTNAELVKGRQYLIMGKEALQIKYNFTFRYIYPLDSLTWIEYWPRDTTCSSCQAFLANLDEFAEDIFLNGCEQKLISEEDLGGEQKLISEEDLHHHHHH
Assay Protocol: SPR (Biacore), mAb captured, dissociation of monkey C5 at pH7.4 vs pH6.0, 25°C
Outcome Measure: t½ Ratio pH7.4/pH6.0
Provide a numeric answer; units are not to be included.

Completed entries (count: 2):
- Binder: "H4H12175P (antibody, human IgG4, V domains shown, H4H: human IgG4 Fc with S108P hinge mutation) VH: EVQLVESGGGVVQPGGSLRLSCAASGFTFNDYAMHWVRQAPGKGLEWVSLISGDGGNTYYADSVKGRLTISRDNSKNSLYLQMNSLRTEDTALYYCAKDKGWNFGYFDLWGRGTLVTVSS VL: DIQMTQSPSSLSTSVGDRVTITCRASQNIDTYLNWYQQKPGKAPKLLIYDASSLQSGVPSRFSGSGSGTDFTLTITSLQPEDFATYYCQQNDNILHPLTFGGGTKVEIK"
  Value Reported: 3.6
- Binder: "H4H11683N (antibody, human IgG4, V domains shown, tested with H4H prefix (human IgG4 Fc with S108P hinge mutation); variable regions follow the numerical identifier; also called H2M11683N) VH: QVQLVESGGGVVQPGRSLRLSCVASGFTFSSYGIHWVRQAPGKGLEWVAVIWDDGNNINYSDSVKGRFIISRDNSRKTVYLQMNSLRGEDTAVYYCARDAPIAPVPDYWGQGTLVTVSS VL: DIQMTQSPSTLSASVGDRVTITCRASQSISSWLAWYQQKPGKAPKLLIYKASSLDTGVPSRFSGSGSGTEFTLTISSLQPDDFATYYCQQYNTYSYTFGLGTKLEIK"
  Value Reported: 0.34

// below: t½ Ratio pH7.4/pH6.0 requested for another binder
Endpoint output: t½ Ratio pH7.4/pH6.0 of H4H12168P (antibody, human IgG4, V domains shown, H4H: human IgG4 Fc with S108P hinge mutation) VH: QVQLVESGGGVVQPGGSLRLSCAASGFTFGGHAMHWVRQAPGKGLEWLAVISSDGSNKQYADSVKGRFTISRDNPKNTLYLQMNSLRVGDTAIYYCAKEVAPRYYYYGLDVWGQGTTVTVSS VL: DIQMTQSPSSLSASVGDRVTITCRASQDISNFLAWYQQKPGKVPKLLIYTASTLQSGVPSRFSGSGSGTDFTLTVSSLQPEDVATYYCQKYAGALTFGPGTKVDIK . Value?
3.8

Values compiled from patent US20170355757A1.
